From: ChEMBL document CHEMBL1137176

molecular target: UniProtKB P32245; test: Effective concentration against cAMP release in CHO cells expressing human melanocortin-4 receptor; format: functional, cell-based
READOUT: pEC50
# pEC50: negative log10 of molar concentration; output just the value

Please review the entries below; each comes with its answer.
CC(NC1CC1)c1ccccc1N1CCN(C(=O)[C@@H](Cc2ccc(Cl)cc2)NC(=O)[C@H]2Cc3ccccc3CN2)CC1 (stereo partly specified) :: 6.76
CC(N[C@H]1CCCCC1N)c1ccccc1N1CCN(C(=O)[C@@H](Cc2ccc(Cl)cc2)NC(=O)[C@H]2Cc3ccccc3CN2)CC1 (stereo partly specified) :: 7.82
O=C(N[C@H](Cc1ccc(Cl)cc1)C(=O)N1CCN(c2ccccc2CNCCc2ccccc2F)CC1)[C@H]1Cc2ccccc2CN1 :: 6.04
CC(N[C@H]1CCNC1)c1ccccc1N1CCN(C(=O)[C@@H](Cc2ccc(Cl)cc2)NC(=O)[C@H]2Cc3ccccc3CN2)CC1 (stereo partly specified) :: 7.92
CN(Cc1ccccc1)Cc1ccccc1N1CCN(C(=O)[C@@H](Cc2ccc(Cl)cc2)NC(=O)[C@H]2Cc3ccccc3CN2)CC1 :: 6.20
CC(NC1CCCC1)c1ccccc1N1CCN(C(=O)[C@@H](Cc2ccc(Cl)cc2)NC(=O)[C@H]2Cc3ccccc3CN2)CC1 (stereo partly specified) :: 7.14
CC(NCCc1cccs1)c1ccccc1N1CCN(C(=O)[C@@H](Cc2ccc(Cl)cc2)NC(=O)[C@H]2Cc3ccccc3CN2)CC1 (stereo partly specified) :: 6.24
CCCC(=O)C1(C2CCCCC2)CCN(C(=O)[C@@H](Cc2ccc(Cl)cc2)NC(=O)[C@@H](Cc2ncc[nH]2)NC(=O)c2ccccc2)CC1 :: 8.54

Request: Given C[C@H]1CN(Cc2ccccc2N2CCN(C(=O)[C@@H](Cc3ccc(Cl)cc3)NC(=O)[C@H]3Cc4ccccc4CN3)CC2)[C@@H](C)CN1 , state its recorded pEC50.
Result: 7.74

Request: # repeat for CN(CCO)Cc1ccccc1N1CCN(C(=O)[C@@H](Cc2ccc(Cl)cc2)NC(=O)[C@H]2Cc3ccccc3CN2)CC1
Result: 7.40

Request: Also need O=C(N[C@H](Cc1ccc(Cl)cc1)C(=O)N1CCN(c2ccccc2CNC2CC2)CC1)[C@H]1Cc2ccccc2CN1 , thanks.
Result: 6.60

----------
molecular target: UniProt Q01726
Sequence (Q01726 whole entry): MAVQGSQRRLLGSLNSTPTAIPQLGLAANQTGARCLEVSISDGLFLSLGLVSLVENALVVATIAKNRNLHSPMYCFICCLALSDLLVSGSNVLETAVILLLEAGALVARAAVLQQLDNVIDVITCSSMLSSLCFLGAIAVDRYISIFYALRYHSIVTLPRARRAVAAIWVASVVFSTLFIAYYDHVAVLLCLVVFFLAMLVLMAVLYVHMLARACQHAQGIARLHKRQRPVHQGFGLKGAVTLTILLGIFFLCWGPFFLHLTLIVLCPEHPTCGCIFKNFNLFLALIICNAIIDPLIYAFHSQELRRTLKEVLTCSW
READOUT: Ki (µM)
Your answer should be a plain number; it is taken to be in µM.

Request: State the recorded Ki for this entry: O=C(N[C@H](Cc1ccc(Cl)cc1)C(=O)N1CCN(c2ccccc2CNCCc2cccs2)CC1)[C@H]1Cc2ccccc2CN1
Result: 6

----------
Below are pKi values measured for Melanocortin receptor 3 (Homo sapiens).
# log scale: pKi equals minus log10 of the concentration in mol/L

CC(NC1CCCNC1)c1ccccc1N1CCN(C(=O)[C@@H](Cc2ccc(Cl)cc2)NC(=O)[C@H]2Cc3ccccc3CN2)CC1 (some centres not stated) :: 5.70

Request: May I ask what pKi has been recorded for O=C(N[C@H](Cc1ccc(Cl)cc1)C(=O)N1CCN(c2ccccc2CNCCc2cccs2)CC1)[C@H]1Cc2ccccc2CN1 ?
Result: 5.74

----------
target: Melanocortin receptor 4 (Homo sapiens)
Sequence (P32245 whole entry): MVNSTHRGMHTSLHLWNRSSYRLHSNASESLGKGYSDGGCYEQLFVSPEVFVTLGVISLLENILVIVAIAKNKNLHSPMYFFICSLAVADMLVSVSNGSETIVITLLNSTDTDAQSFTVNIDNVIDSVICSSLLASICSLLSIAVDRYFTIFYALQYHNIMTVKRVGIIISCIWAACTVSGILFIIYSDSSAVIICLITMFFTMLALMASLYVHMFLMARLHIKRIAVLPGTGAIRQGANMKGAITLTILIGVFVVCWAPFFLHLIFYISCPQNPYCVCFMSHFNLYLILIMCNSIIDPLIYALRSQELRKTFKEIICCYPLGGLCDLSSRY
Mark each entry class 1 if its Ki sits below 0.02 µM, and class 0 for all others.

Study these solved cases before continuing.
CC(NCCc1cccs1)c1ccccc1N1CCN(C(=O)[C@@H](Cc2ccc(Cl)cc2)NC(=O)[C@H]2Cc3ccccc3CN2)CC1 (some centres undefined) :: class 0
O=C(N[C@H](Cc1ccc(Cl)cc1)C(=O)N1CCN(c2ccccc2CNCCCO)CC1)[C@H]1Cc2ccccc2CN1 :: class 0
NCCNCc1ccccc1N1CCN(C(=O)[C@@H](Cc2ccc(Cl)cc2)NC(=O)[C@H]2Cc3ccccc3CN2)CC1 :: class 0
O=C(N[C@H](Cc1ccc(Cl)cc1)C(=O)N1CCN(c2ccccc2CN2CCN(c3ccccc3)CC2)CC1)[C@H]1Cc2ccccc2CN1 :: class 0
O=C(N[C@H](Cc1ccc(Cl)cc1)C(=O)N1CCN(c2ccccc2CNCc2ccco2)CC1)[C@H]1Cc2ccccc2CN1 :: class 0
CC(NC1CCCC1)c1ccccc1N1CCN(C(=O)[C@@H](Cc2ccc(Cl)cc2)NC(=O)[C@H]2Cc3ccccc3CN2)CC1 (some centres undefined) :: class 1
O=C(N[C@H](Cc1ccc(Cl)cc1)C(=O)N1CCN(c2ccccc2CNCCc2cccc(F)c2)CC1)[C@H]1Cc2ccccc2CN1 :: class 1
O=C(N[C@H](Cc1ccc(Cl)cc1)C(=O)N1CCN(c2ccccc2CNCCc2ccccc2F)CC1)[C@H]1Cc2ccccc2CN1 :: class 0

Request: Please state whether Ki is below 0.02 µM for C[C@H]1CN(Cc2ccccc2N2CCN(C(=O)[C@@H](Cc3ccc(Cl)cc3)NC(=O)[C@H]3Cc4ccccc4CN3)CC2)[C@@H](C)CN1
Result: class 1
